- SYSTEM TESTED: T1, human GFRα3 expressed with a C-terminal hFc tag (human)
- T1 construct: also called hGFRα3-hFc
- T1 sequence (chain, as listed by the source limits assumed): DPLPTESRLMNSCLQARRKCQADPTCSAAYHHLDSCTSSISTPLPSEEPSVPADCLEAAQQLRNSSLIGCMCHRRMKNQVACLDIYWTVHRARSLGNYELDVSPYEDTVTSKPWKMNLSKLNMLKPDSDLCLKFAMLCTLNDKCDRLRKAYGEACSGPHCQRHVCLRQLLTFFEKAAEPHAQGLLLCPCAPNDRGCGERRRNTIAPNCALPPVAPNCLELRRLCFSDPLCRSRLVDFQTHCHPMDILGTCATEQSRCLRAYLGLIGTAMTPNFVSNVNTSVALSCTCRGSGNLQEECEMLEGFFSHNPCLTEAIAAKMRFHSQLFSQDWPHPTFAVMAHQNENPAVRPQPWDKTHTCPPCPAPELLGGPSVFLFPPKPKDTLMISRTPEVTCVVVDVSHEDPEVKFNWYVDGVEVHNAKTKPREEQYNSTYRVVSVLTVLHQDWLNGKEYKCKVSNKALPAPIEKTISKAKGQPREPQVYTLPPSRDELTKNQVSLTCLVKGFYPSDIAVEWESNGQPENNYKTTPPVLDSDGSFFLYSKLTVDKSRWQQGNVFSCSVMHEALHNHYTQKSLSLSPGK
- TEST METHOD NOTES: blocking ELISA 1, hGFRα3-hFc to coated hARTEMIN-mmH
EXPERIMENTAL ENDPOINT: % max blocking (%)
Unit % implied. Number only.

H4H2293P (antibody, human IgG4, V domains shown, human IgG4 Fc (H4H)) VH: QVQLVESGGGVVQPGRSLRLSCAASGFSFSDYVMHWVRQAPGKGLEWVASIWFDGSNELYADSVKGRFTISRDNSKNTLFLQMNSLRAEDTAVYYCAKKGVLVATSAFHIWGQGTMVTVSS VL: AIQMTQSPSSLSASVGDRVTITCRASQNINNYLNWYHQKPGKAPNLLIYAASSLQSGVPSRFSGSGSGTDYTLTISSLQPEDFGNYYCQQSYSTSMYTFGQGTKLEIK : 93

Shift focus to the following entry.
## Input If you can, please state the reported % max blocking value of H4H2346S (antibody, human IgG4, V domains shown, human IgG4 Fc (H4H)) VH: QVQLVESGGGVVQPGRSLRLSCAASGFSFSDYVMHWVRQAPGKGLEWVASIWFDGSNEFYADSVKGRFTISRDNSKNTLFLQMNSLRAEDTAVYYCAKKGVLVATSAFDIWGQGTMVTVSS VL: EIVMTQSPSSLSASVGDRVTITCRASQSINNYLNWYHQKPGKAPKLLIYAASSLQSGVPSRFSGSGSGTDYTLTISSLQPEDFGNYYCQQSYRTSMYTFGQGTKVEIK .
## Output 92

Origin of values: patent US20140056903A1
